Target: human PD-1 (human, UniProt Q15116 25-288)
Sequence (Q15116 25-288 limits assumed): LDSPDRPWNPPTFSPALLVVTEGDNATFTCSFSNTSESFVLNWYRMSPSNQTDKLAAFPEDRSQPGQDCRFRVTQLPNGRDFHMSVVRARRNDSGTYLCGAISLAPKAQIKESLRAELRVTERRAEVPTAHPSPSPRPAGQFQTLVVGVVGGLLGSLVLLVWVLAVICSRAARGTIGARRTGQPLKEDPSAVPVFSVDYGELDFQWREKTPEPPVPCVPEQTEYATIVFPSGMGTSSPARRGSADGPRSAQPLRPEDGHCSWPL
Test: cell-based or functional assay
M07e-hPD-1 cell proliferation ratio (%) at 0.0001 nM values by entry

{"columns": ["binder", "observed_measurement"],
 "data": [
  ["A-PC (Fc fusion, also called positive control molecule A-PC; PD-1-IL-2v; not shown: IgG1 hinge (C220S) + Fc Knob chain (L234A, L235A, S354C, T366W, EU); D356/L358 or E356/M358 ver; IgG1 hinge (C220S) + Fc Hole chain (L234A, L235A, Y349C, T366S, L368A, Y407V; may have H435R, Y436F; EU)) chain (part 1 of 2): EVQLVESGGGLVQPGGSLRLSCAASGLTFSDYSMSWYRQAPGKGRELVAIISGSGVITHYVDSVKGRFTISRDNAKNTLYLQMRSLRAEDTAVYYCRAVSDWEDYWGQGTQVTVSS chain (part 2 of 2): GGGGSGGGGSGGGGSAPASSSTKKTQLQLEHLLLDLQMILQGISNYKNPKLTRMLTAKFYMPKKATELKHLQCLEEELKPLEEVLQGAQSKNFHLRPRDLISNINVIVLELKGSETTFMCEYADETATIVEFLNRWITFAQSIISTLT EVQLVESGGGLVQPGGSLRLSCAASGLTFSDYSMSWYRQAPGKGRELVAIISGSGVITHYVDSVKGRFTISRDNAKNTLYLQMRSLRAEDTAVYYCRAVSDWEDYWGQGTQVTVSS", "4%"]
]}

Please give the documented M07e-hPD-1 cell proliferation ratio (%) at 0.0001 nM of A-N88D-M08 (Fc fusion, also called A-N88D-M8; not shown: IgG1 hinge (C220S) + Fc Knob chain as in A-N88D; IgG1 hinge (C220S) + Fc Hole chain as in A-N88D) chain (part 1 of 2): EVQLVESGGGLVQPGGSLRLSCAASGLTFSDYSMSWYRQAPGKGRELVAIISGSGVITHYVDSVKGRFTISRDNAKNTLYLQMRSLRAEDTAVYYCRAVSDWQDYWGQGTQVTVSS chain (part 2 of 2): GGGGSGGGGSGGGGSAPASSSTKKTQLQLEHLLLDLQMILQGISNYKNPKLTRMLTAKFYMPKKATELKHLQCLEEELKPLEEVLQGAQSKNFHLRPRDLISDINVIVLELKGSETTFMCEYADETATIVEFLNRWITFAQSIISTLT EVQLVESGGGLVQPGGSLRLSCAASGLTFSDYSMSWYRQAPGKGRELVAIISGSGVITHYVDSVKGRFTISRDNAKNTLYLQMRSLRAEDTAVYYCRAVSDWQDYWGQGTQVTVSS
3.8%

These measurements were taken from patent EP4477673A1.
